Protocol Details: PAMPA BBB permeability assay
Format: in vitro ADME
Settings: PAMPA, pH 7.4
Experimental Readout: Papp at 4 h (×10⁻⁶ cm/s)

Smiles Str | Experimental Readout | Result
COc1ccc([C@@H]2CC(=O)c3c(O)cc(O[C@@H]4O[C@H](CO[C@@H]5O[C@@H](C)[C@H](O)[C@@H](O)[C@H]5O)[C@@H](O)[C@H](O)[C@H]4O)cc3O2)cc1O | Papp at 4 h | 0.558

* * *

Protocol Details: PAMPA BBB permeability assay
Format: in vitro ADME
Settings: PAMPA; compound dissolved in DMSO; donor pH ≈ 7.4, 4 h, 37 °C; read-out: PAMPA BBB Papp
Experimental Readout: Papp at 4 h (×10⁻⁶ cm/s)

Smiles Str | Result
COc1ccc([C@@H]2CC(=O)c3c(O)cc(O)cc3O2)cc1O | 5.58

* * *

Listed next: entries and their corresponding solubility at 24 h.
Protocol Details: physchem
Type: physicochemical
Settings: pH 6.8, aqueous buffer, thermodynamic from solid
Experimental Readout: solubility at 24 h (µg/mL)

Molecule | Result
COc1ccc([C@@H]2CC(=O)c3c(O)cc(O[C@@H]4O[C@H](CO[C@@H]5O[C@@H](C)[C@H](O)[C@@H](O)[C@H]5O)[C@@H](O)[C@H](O)[C@H]4O)cc3O2)cc1O [Hed, hesperidin] | 9
COc1ccc([C@@H]2CC(=O)c3c(O)cc(O)cc3O2)cc1O [Het, hesperetin] | 15

* * *

Protocol Details: physchem
Assay type: physicochemical
Settings: simulated gastric fluid, thermodynamic from solid

Smiles Str | Measurement Unit | solubility at 24 h
COc1ccc([C@@H]2CC(=O)c3c(O)cc(O)cc3O2)cc1O | µg/mL | 6
COc1ccc([C@@H]2CC(=O)c3c(O)cc(O[C@@H]4O[C@H](CO[C@@H]5O[C@@H](C)[C@H](O)[C@@H](O)[C@H]5O)[C@@H](O)[C@H](O)[C@H]4O)cc3O2)cc1O | µg/mL | 8
